Test system: CEM cells HIV-1 protection, formazan growth assay
protocol_details: NCI AIDS Antiviral Assay;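 active means compounds giving half or more protection of infected cells from virus-caused growth loss, again on retest; inactive means the rest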
Hi there, use one of these labels in your reply, thanks! YES = active, NO = inactive

Incoming: Record request — test call for CC(C)(C)C(=O)Nc1ccccc1C(=O)C12CCC3(CCOCc4ccccc4)C=CCN(C(=O)O1)C32 (stereo unspecified)
Outgoing: NO

Incoming: How about CC1(CO)C(O)CCC2(C)C1CCC1CC3CC12CCC3(O)CO (stereo unspecified) ?
Outgoing: NO

Incoming: How about O=C(NCCOC(=O)OCCNC(=O)NC1CCCCC1)NC1CCCCC1 ?
Outgoing: NO

Incoming: How about Cc1cc2c(c(C(=O)NCC(=O)O)c1)Oc1c(cc(C)cc1C(=O)NCC(=O)O)S2 ?
Outgoing: NO

Incoming: How about Cc1cccc(N2C(=O)C(=O)C(c3nc4ccccc4s3)/C(=N/NC(=S)NN)C2=O)c1C (stereo unspecified) ?
Outgoing: NO

Incoming: How about Cc1cc2c(C(C)C)c(O)c(O)c(C=Nc3ccccc3S)c2c(O)c1-c1c(C)cc2c(C(C)C)c(O)c(O)c(C=Nc3ccccc3S)c2c1O ?
Outgoing: NO

* * *

Test system: CEM cells HIV-1 protection, formazan growth assay
protocol_details: NCI AIDS Antiviral Assay;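 active means compounds giving half or more protection of infected cells from virus-caused growth loss, again on retest; inactive means the rest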
Hi there, use one of these labels in your reply, thanks! active, inactive

COc1ccccc1N1CCN(CCc2c[nH]c3cc4c(cc23)OCO4)CC1    inactive

Incoming: Record request — test call for CCCCCC=C(c1cc(Cl)c(OC)c(C(=O)NC)c1)c1cc(Cl)c(OC)c(C(=O)NC)c1
Outgoing: inactive

* * *

System: CEM cells HIV-1 protection, formazan growth assay
protocol_details: NCI AIDS Antiviral Assay
metric_name: EC50

Nc1ccccc1OCCCOc1ccccc1N    > 200 µM
N#Cc1ccc(Oc2nc3ccccc3nc2-c2ccccc2)cc1    > 200 µM
CCC[CH2][Sn]1([CH2]CCC)[O]C(=O)c2cccnc2[O]1    > 97.7 µM
COc1cc(O)c2c(=O)c3c(OC)c(O)ccc3oc2c1    > 200 µM
C=CCc1cc(CN2CCN(C)CC2)c(O)c(OC)c1    > 200 µM
C[N+]1(C)CC2C3C=CC(C3)C2C1 (configuration not stated)    > 309 µM

Now turn to the next molecule.
Incoming: Give its EC50 value. Item: CC1(C)COC(c2cccc(C3=NC(C)(C)CO3)n2)=N1
Outgoing: > 26.3 µM

* * *

System: CEM cells HIV-1 protection, formazan growth assay
protocol_details: NCI AIDS Antiviral Assay
condition: measured here: growth of uninfected CEM cells
As shown below, each of these molecules has a reported pIC50 value.
Lab note: report pIC50 as minus log10 of the concentration in molar units, number only.

Incoming: Give its pIC50 value. Item: Cc1cc2ccc3c(c2oc1=O)[C@@H](OC(=O)C12CCC(C)(C(=O)O1)C2(C)C)[C@@H](OC(=O)C12CCC(C)(C(=O)O1)C2(C)C)C(C)(C)O3 (stereo not given in full)
Outgoing: 4.73

* * *

As shown below, each of these compounds has a reported log10(IC50) value.
System: CEM cells HIV-1 protection, formazan growth assay
protocol_details: NCI AIDS Antiviral Assay
condition: measured here: growth of uninfected CEM cells
Description: The ability of compounds to protect human CEM cells from HIV-1 infection is measured as a screen for new compounds capable of inhibiting the HIV virus. Five concentrations of drug were tested on uninfected and infected cells and cell growth was measured using a soluble formazan assay. […] Compounds that provided at least 50% protection were retested. Compounds that provided at least 50% protection on retest were listed as moderately active. […]
Record value = log10 of IC50 given in µM.

Reference set, count: 3
CCN(CC)CCNc1ccc(CO)c2oc3ccccc3c(=O)c12    0.38
CC(=O)SCCCn1c(=O)n(CCCSC(C)=O)c(=O)n(CCCSC(C)=O)c1=O    1.09
CCCC/C=C\CCCCCCCCCC1=C(O)C(=O)C=C(OC)C1=O    0.97

Incoming: Give its log10(IC50) value. Item: O=C1N2CCNc3ccccc3C(c3ccccc3)N1CC2 (stereo not drawn)
Outgoing: 1.27

* * *

Test system: CEM cells HIV-1 protection, formazan growth assay
protocol_details: NCI AIDS Antiviral Assay
condition: measured here: growth of uninfected CEM cells
metric_name: IC50 (µM)
Please respond with the number in µM and leave the unit unwritten.

Reference set, count: 6
COc1ccc(Cl)cc1NC(=O)O/N=C(\Cl)C(C)C    2.51
O=C(/C=C/c1ccco1)c1cccc(C(=O)/C=C/c2ccco2)n1    9.55
CCOC(=O)c1ccc(CSc2ccc(OC)cc2)c([N+](=O)[O-])c1    19.1
O=C(/C=C/c1ccccc1)Oc1cccc2cccnc12    3.63
COC(NC(=O)Nc1ccc(C)cc1)(C(F)(F)F)C(F)(F)F    27.5
COC1=CC(=O)C2C=C3C(CO)=CCC(O)C3(C)CC2C1=O (stereo not drawn)    3.8

Incoming: Give its IC50 value. Item: O=[N+]([O-])c1ccc(CN(CCCl)OCCCl)cc1
Outgoing: 37.2

* * *

Tested on: CEM cells HIV-1 protection, formazan growth assay
protocol_details: NCI AIDS Antiviral Assay
condition: measured here: growth of uninfected CEM cells
metric_name: IC50 (µM)
Please respond with the number in µM and leave the unit unwritten.

Reference set, count: 6
COC(=O)[C@]1(C)CCC[C@]2(C)c3cc(C(C)=O)c(C(C)C)cc3CC[C@@H]12    25.7
C/C(Sc1ccccc1)=C1/CCCN(Cc2ccccc2)C1    74.1
Cc1cc2c(c(C=NCc3ccccc3)c1)OC1(C=C2)Oc2ccccc2C(=O)N1C (stereo not given)    52.5
Nc1ccc2nc3ccc(O)cc3nc2c1    17
C[N+]12C=CC=C1C(N1CCCC1)c1scc(-c3ccc(F)cc3)c12 (stereo not given)    24.5
CC(=O)c1cccc(NC(=O)C(=O)C(C(=O)c2ccccc2F)C2OC(=O)c3ccccc32)c1 (stereo not given)    15.8

Incoming: Give its IC50 value. Item: C=[N+]([O-])CC[C@@]1(O)C[C@H](n2ccc(=O)[nH]c2=O)O[C@@H]1CO[Si](C)(C)C(C)(C)C
Outgoing: 44.7

* * *

Tested on: CEM cells HIV-1 protection, formazan growth assay
protocol_details: NCI AIDS Antiviral Assay;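 active = compounds giving half or more protection of infected cells from virus-caused growth loss, again on retest; inactive = the rest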
Hi there, use one of these labels in your reply, thanks! active, inactive

Use these answered entries as a reference point.
CCOC(=O)OC(=S)N(C1CCCCC1)C1CCCCC1    inactive
N#Cc1c(-c2ccccc2)cn(C(=O)c2ccccc2)c1N    inactive
C=CCOc1ccc(N)c([N+](=O)[O-])c1    inactive
Cc1ccc(-c2cc(=S)ss2)cc1    inactive
CC(=N/NC(=S)N1CCCCC1)/C(=N\NC(=S)N1CCCCC1)c1ccccc1    inactive

Incoming: Record request — test call for COc1cnc([C@H]2CCC3[C@@H]4CC=C5C[C@@H](O)CC[C@]5(C)C4CC[C@@]32C)s1 (stereo partly specified)
Outgoing: inactive

Incoming: How about N.N.O=C([O-])P(=O)([O-])[O-].[Na+].[Pt+4] ?
Outgoing: inactive

Incoming: How about CCOC(=O)C1C/C(C)=C(/C)SCCCS1 (stereo unspecified) ?
Outgoing: inactive

Incoming: How about Cc1ccc(-c2cc(-c3ccco3)c(C#N)c(=O)n2C2OC(CO)C(O)C(O)C2O)cc1 (stereo unspecified) ?
Outgoing: active

Incoming: How about CCOC(=O)c1nnc2sc(-c3ccccc3)nn12 ?
Outgoing: inactive

Incoming: How about COC1C(N(C)C)=C(c2ccccc2)C(=O)N2CCc3ccccc3C12 (stereo unspecified) ?
Outgoing: inactive

* * *

Test system: CEM cells HIV-1 protection, formazan growth assay
protocol_details: NCI AIDS Antiviral Assay;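 active means compounds giving half or more protection of infected cells from virus-caused growth loss, again on retest; inactive means the rest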
Hi there, use one of these labels in your reply, thanks! 1 (active), -1 (inactive)

Cc1c(/C=N/NC(=S)Nc2ccccc2)c(=O)n(-c2ccccc2)n1C    -1
Nc1cc(C(F)(F)F)ccc1S    -1
COc1ccc(CNc2nc3cc(C(F)(F)F)ccc3nc2C)cc1OC    -1
O=C1CC(=O)NP(=O)(Oc2ccccc2)N1    -1

Incoming: Record request — test call for COC1/C=C/OC2(C)Oc3c(C)c(O)c4c(O)c(c(/C=N/N(C)C5OC(COC(=O)c6ccccc6)C(OC(=O)c6ccccc6)C5OC(=O)c5ccccc5)c(O)c4c3C2=O)NC(=O)C(C)=C/C=C/C(C)C(O)C(C)C(O)C(C)C(OC(C)=O)C1C (configuration not stated)
Outgoing: -1

Incoming: How about O=C1CS(=O)(=O)C(c2ccccc2F)N1N1C(=O)CS(=O)(=O)C1c1ccccc1F (configuration not stated) ?
Outgoing: -1

Incoming: How about Nc1ncnc2c1ncn2C1OC(C(O)CO)C(O)C1O (configuration not stated) ?
Outgoing: -1

Incoming: How about CCOC(=S)SSSC(=S)OCC ?
Outgoing: -1

Incoming: How about O=c1oc2ccccc2c(O)c1/C=N/C(=S)NCc1ccccc1 ?
Outgoing: -1

Incoming: How about Cc1nn(C(=O)Cc2ccccc2)c2c1C(c1ccccc1[N+](=O)[O-])SC(N)=N2 (configuration not stated) ?
Outgoing: 1

Incoming: How about Cc1cc(S(=O)(=O)Nc2nc3cscc3c(=O)n2N)c(S)cc1Cl ?
Outgoing: 1

Incoming: How about C[N+]1(CC(O)(O)C(F)F)CCOCC1 ?
Outgoing: -1

Incoming: How about O=C1c2ccccc2CC1C1(O)C(=O)Nc2c(Cl)cc(Cl)cc21 (configuration not stated) ?
Outgoing: -1

Incoming: How about CC(C)(C)C1CCC(N=C(N)CSS(=O)(=O)O)CC1 (configuration not stated) ?
Outgoing: -1

Incoming: How about CO/N=C/c1cc(OC)c(OC)c(OC)c1 ?
Outgoing: -1
